Collected literature values of pIC50 measured for Coagulation factor X (Homo sapiens, UniProt P00742).
Note on units: pIC50 is unitless, being -log10 of a concentration expressed in mol/L.

Example entries and their recorded answers appear below.
N=C(N)c1cccc(CO[C@H]2CO[C@H]3[C@@H]2OC[C@H]3Oc2cccc(C(=N)N)c2)c1
5.10
N=C(N)c1cccc(-c2ccccc2Cn2c(=O)ccc3cc(OC4CCNCC4)ccc32)c1
4.38

Q. Short answer please: pIC50, Coagulation factor X (Homo sapiens, UniProt P00742), entry CS(=O)(=O)c1ccccc1-c1ccc(NC(=O)N(Cc2cccc(C(=N)N)c2)c2ccccc2)cc1
A. 6.52

Q. Short answer please: pIC50, Coagulation factor X (Homo sapiens, UniProt P00742), entry CC(=N)N1CCC(Oc2ccc3c(c2)OCC(=O)N3Cc2cccc(-c3cccc(C(=N)N)c3)c2)CC1
A. 7.42

Q. Short answer please: pIC50, Coagulation factor X (Homo sapiens, UniProt P00742), entry CN1CCC(C2CCN(C(=O)[C@H](OC(=O)Nc3ccc(Cl)cc3)c3ccccc3)CC2)CC1
A. 7.96
